Cited source: patent US4153709A

- Tested on: Salmonella typhimurium G46 missense histidine-auxotroph
- Experimental Protocol: Host mediated assay (in vivo mutagenicity), G46 indicator (Table 22)
- Parameters: species or system Salmonella typhimurium in Cox white Swiss male mice
- Condition Parameters: 3 mg/kg, s.c.
For each of the molecules below, state its IN VIVO mutants test/mutants control.
Reply with just the number.

I'd like to know its IN VIVO mutants test/mutants control. The molecule in question is CN(C)N=O [DMNA, N-nitrosodimethylamine]
1.16

Here is the next molecule: CN(N=O)C(=O)N[C@H]1C(O)O[C@H](CO)[C@@H](O)[C@@H]1O (stereo partly shown) [STREPTOZOTOCIN]
2782

Then C1CN1c1nc(N2CC2)nc(N2CC2)n1 [TEM, trimethylenemelamine] ?
13

* * *

- System: antibody to sheep red blood cells
- Experimental Protocol: 75 percent reduction of control antibody titer in mice by subcutaneous, percutaneous and oral routes (Table 16)
- Format: in vivo, male Swiss mice
- Condition Parameters: Mus musculus, Erythrocyte; percutaneous, × 10 daily doses commencing 3 days before antigen i.v.; read-out: Lowest Dose Producing 75% Immunosuppression, Percutaneous
For each record, write down the corresponding minimal effective dose.

Fill blank: measured minimal effective dose of the compound O=P1(N(CCCl)CCCl)NCCCO1 (stereo not drawn) [Cyclophosphamide, reference compound] is ____.
25 mg/kg

Next compound: COc1ccc2nc(NC(=O)Nc3ccccc3)sc2c1
12.5 mg/kg

Proceed to O=C(Nc1ccccc1)Nc1nc2c(s1)CCCC2
3.1 mg/kg

Can you check O=C(Nc1ccccc1)Nc1nc2ccccc2s1 next?
6.2 to 12.5 mg/kg

Continue with Cn1cnc([N+](=O)[O-])c1Sc1ncnc2nc[nH]c12 [Azathioprine, reference compound]
100 mg/kg

What about C[C@]12CCC(=O)C=C1CC[C@@H]1[C@@H]2C(=O)C[C@@]2(C)[C@H]1CC[C@]2(O)C(=O)CO [Cortisone, reference compound] ?
50 mg/kg

* * *

- Tested on: Salmonella typhimurium G46 missense histidine-auxotroph
- Experimental Protocol: Host mediated assay (in vivo mutagenicity), G46 indicator (Table 22)
- Set-up: species or system Salmonella typhimurium in Cox white Swiss male mice
- Condition Parameters: 30 mg/kg, s.c.
Readout: IN VIVO mutants test/mutants control

Dear colleague, I am looking for the recorded IN VIVO mutants test/mutants control of the following molecule: CN(C)N=O
43.6

Likewise for C1CN1c1nc(N2CC2)nc(N2CC2)n1 ?
27

What do we get for CN(N=O)C(=O)N[C@H]1C(O)O[C@H](CO)[C@@H](O)[C@@H]1O (stereo partly shown) ?
444

// repeat for COc1ccc2nc(NC(=O)Nc3ccccc3)sc2c1 and report
.95
